Entries and their INHIBITION
Test system: Plasmodium berghei
method description: Screen against P. berghei liver stage (PbLuc), transformed with Luciferase, at 10uM
Assay type: functional, HepG2
condition: tested at 10 uM
Among all 69,000 compounds or so, about 8,600 (12%) showed an effect of 50% or more. Shown is part of a subset that was picked to be rich in strong results.
Only the number, expressed in %, is required.

Worked examples follow.
CN1CCN(c2ccc3ccc(C(=O)N4CCCCO4)cn23)CC1: -12.4
C=C(Br)CN(C)C1CCN(CCc2ccccn2)CC1: -9.37
CN(CC1CC1)c1ccc2ccc(C(=O)NC3CCCCC3)cn12: 0.112
CN(C)C(=O)CNC(=O)c1ccc2ccc(N(C)CC3CC3)n2c1: 26
CCNC(=O)c1ccc2ccc(N(CC)CC)n2c1: 55.6

**Q:** Tell me measured INHIBITION for "Cc1sc(Br)cc1S(=O)(=O)NCCCN" please.
**A:** 8.08

**Q:** Tell me measured INHIBITION for "CCN(CC)c1ccc2ccc(C(=O)O)cn12" please.
**A:** 39.3

**Q:** Tell me measured INHIBITION for "CN(CC1CC1)c1ccc2ccc(C(=O)NCCN3CCOCC3)cn12" please.
**A:** 23.2

**Q:** Tell me measured INHIBITION for "CCN(CC)c1ccc2ccc(C(=O)N(C)C)cn12" please.
**A:** 57.1

----------
System: Plasmodium berghei
method description: Screen against P. berghei liver stage (PbLuc), transformed with Luciferase, at 10uM
Type: functional, HepG2
condition: tested at 10 uM
The whole screen tested about 69,000 compounds, of which about 8,600 (12%) showed an effect of 50% or more. The sample as a whole holds a higher share of strong results than the screen did.
Tag: True if measured INHIBITION is not below 40%, False if it is.

// known answers, use as guide
COc1ncccc1CN1CCC2(CC1)CN(c1ccccn1)CCO2: True
CS(=O)(=O)N1CCO[C@@H]2CN(Cc3ccc(F)cc3)C[C@@H]2C1: True
COC1COC2(CCN(c3ccc(C#N)cc3)CC2)C1 (configuration not stated): False
Cc1ncnc2c1CCN(CC(=O)N(C)C)CC2: True
CS(=O)(=O)N1CCOCC12CCN(Cc1ccoc1)CC2: False
CS(=O)(=O)N1CCOCC12CCN(Cc1ccc(F)cc1)CC2: True
CNC(=O)COC1COC2(CCN(c3ncccn3)CC2)C1 (configuration not stated): False
CS(=O)(=O)N1CCOCC2(CN(Cc3ccsc3)CCO2)C1 (configuration not stated): False

**Q:** Dear colleague, could you confirm whether "Cc1nnc(SCCC(=O)N(C)Cc2c(F)cccc2Cl)[nH]1" has INHIBITION at or above 40%?
**A:** False

**Q:** Dear colleague, could you confirm whether "CN(C)C(=O)CN1CCc2ncnc(C3CC3)c2CC1" has INHIBITION at or above 40%?
**A:** True

**Q:** Dear colleague, could you confirm whether "CN(C)C(=O)CN1CCc2ncnc(N(C)C)c2CC1" has INHIBITION at or above 40%?
**A:** False

----------
Tested on: Plasmodium berghei
method description: Screen against P. berghei liver stage (PbLuc), transformed with Luciferase, at 10uM
Format: functional, HepG2
condition: tested at 10 uM
In all, about 69,000 compounds went through this assay and about 8,600 (12%) showed an effect of 50% or more. Only a selection was taken, and strong results are over-represented in it overall.
recorded endpoint: INHIBITION (%)
Only the number, expressed in %, is required.

Worked examples follow.
Cc1cccc(CN2CC3(CCN(C4CCOC4)CC3)OCC2=O)n1 (configuration not stated): 5.56
Cn1cccc1C(=O)NC[C@H]1C[C@@H]2CN(C(=O)c3ccco3)C[C@@H]2O1: 7.7
Cc1nc(C2CCCN2C(=O)c2ccccc2)ncc1C(N)=O (configuration not stated): 40.4
Cc1cc(F)ccc1S(=O)(=O)N1C[C@@H](C)[C@@](C)(O)C1: 52.5
O=C(NC[C@H]1OC[C@@H]2CCN(Cc3ccco3)C[C@@H]21)c1ccnnc1: 6.72

**Q:** Tell me measured INHIBITION for NC(=O)CCC1CCCN(c2ccnc3cc(F)ccc23)C1 (configuration not stated) please.
**A:** 79.3

**Q:** Tell me measured INHIBITION for "C[C@@H]1CN(S(=O)(=O)c2ccc(F)cc2Cl)C[C@]1(C)O" please.
**A:** 5.94

**Q:** Tell me measured INHIBITION for Cc1nc(C2CCCN2C(=O)c2ccc(F)cc2)ncc1C(N)=O (configuration not stated) please.
**A:** 55.6

**Q:** Tell me measured INHIBITION for CSCC(=O)NC(Cc1ccc(C)cc1)c1ccccn1 (configuration not stated) please.
**A:** 21.3

**Q:** Tell me measured INHIBITION for "Cc1cc(F)ccc1N1CCC(N2C[C@@H](CN(C)C)[C@@H](CO)C2)CC1" please.
**A:** 38

**Q:** Tell me measured INHIBITION for Cc1ccc(N2CCCC(NCC(=O)NC(C3CC3)C3CC3)C2)nn1 (configuration not stated) please.
**A:** -6.44

**Q:** Tell me measured INHIBITION for Cc1nc(C2CCCN2C(=O)CCc2ccccc2)ncc1C(N)=O (configuration not stated) please.
**A:** 18.3
